assay-protocol: JC-1 mitochondrial signal, unstimulated adipocytes – cell-based, JC-1 fluorescence, 3T3-L1 adipocytes, 24 h, 100 nL compound, profiling panel (AID 1168); also: test concentration not given here
recorded-conditions: JC-1 mitochondrial fluorescence, higher = more signal, called active from +8 up or from −8 down
Recorded z-score split into classes class 0 (below -0.5), class 1 (-0.5 to below 0.1), class 2 (0.1 or more)

COc1ccccc1CN1C(=O)c2ccccc2[C@@]2(Cc3ccccc3N(CCCN(C)C)C2=O)[C@@H]1c1ccc(CO)cc1; class 1
CCOC(=O)[C@H]1C/C=C/C[C@H](C(=O)OCC)C(=O)O[C@H]2[C@@H](OC)O[C@H](CO)[C@@H](OC(=O)c3ccc(Br)cc3)[C@@H]2OC1=O; class 1
COC(=O)[C@@]1(CCC(=O)OC(C)(C)C)N=C(c2ccc(OCCCO)cc2)O[C@H]1c1ccccc1; class 1
C=C(CCCC)C(=O)CC[C@H](OC(=O)c1cccnc1)c1ccc(OCCO)cc1; class 0
Cc1ccc(C2C3C(=O)CC4C(=O)N(c5ccccc5)C(=O)C4C3CN2S(=O)(=O)c2ccc(C)cc2)cc1 (stereo not given); class 2

Qu. Quick check: band for CS(=O)(=O)CCOC(=O)C1=CC(CCCO)=CC(c2ccc(CN3CCCC3)cc2)N(Cc2cccc(OC(F)(F)F)c2)C=C1C(=O)OCCS(C)(=O)=O (stereo not given)
Ans. class 1

Qu. Quick check: band for O=C1C2C=CC(C(O)c3ccc(-c4ccccc4)s3)N(Nc3ccccc3)C2C(=O)N1c1ccccc1 (stereo not given)
Ans. class 1

Qu. Quick check: band for O=C(NCCN1CCOCC1)[C@@H]1c2ccccc2C(=O)N(Cc2cc(C(F)(F)F)cc(C(F)(F)F)c2)[C@H]1c1ccc(CO)cc1
Ans. class 2

Qu. Quick check: band for COC(=O)[C@@]1(Cc2ccc(F)cc2)[C@H]2c3cc(C(=O)N(C)C)n(Cc4ccc(C)o4)c3C[C@H]2CN1C(=O)c1ccccc1
Ans. class 0

Qu. Quick check: band for O=C1OCCC=C[C@H]2OC34C=CCN(CCN5CCOCC5)C(=O)[C@H]3N(CCCCCO)C(=O)[C@@H]4C12 (stereo not given in full)
Ans. class 2

Qu. Quick check: band for CC(=O)NCCCC[C@@H]1NC(=O)[C@H]2C[C@@H](C(=O)NCCCCCNC(=O)CS)[C@@H](c3ccc(O)cc3)N2C1=O
Ans. class 0
